# credit: patent US20230009608A1

# measured-on: GRK2 (Homo sapiens)
# Construct: purchased SignalChem A14-10G
# run-description: GRK2 Inhibition Assay (TR-FRET, Example 7)
# Assay type: biochemical
# measurement-setup: TR-FRET GRK2 enzyme assay; read-out: B: Enzymatic GRK2: IC50 (nM) (Example 7)
IC50: recorded values
The response must be a number in nM with no trailing unit.

Here is how some compounds turned out for IC50.
COc1ccccc1[C@H](NC(=O)c1cccc(NCc2nnc(-c3ccncn3)n2C)c1)c1nccn1C; 100
Cn1c(CNc2cccc(C(=O)N[C@@H](C#N)c3c(F)cccc3Cl)c2)nnc1-c1ccncn1; 5.1
CCc1cnccc1CNC(=O)c1cccc(NCc2nnc(-c3ccncn3)n2[C@H]2CC[C@@H](NC)C2)c1; 190
CCc1cnccc1CNC(=O)c1cccc(NCc2nnc(-c3ccncn3)n2[C@@H]2CC[C@H](NC)C2)c1; 110

Could you now consider this next compound?
Ask | What IC50 value was documented for this compound, CCc1cnccc1CNC(=O)c1cccc(NCc2nnc(-c3ccncn3)n2[C@@H]2CCC[C@H](NC)C2)c1 ?
Reply | 57

----------
# measured-on: GRK2 (Homo sapiens, UniProt P25098)
# Construct: purchased SignalChem A14-10G
# Sequence (P25098 1-689): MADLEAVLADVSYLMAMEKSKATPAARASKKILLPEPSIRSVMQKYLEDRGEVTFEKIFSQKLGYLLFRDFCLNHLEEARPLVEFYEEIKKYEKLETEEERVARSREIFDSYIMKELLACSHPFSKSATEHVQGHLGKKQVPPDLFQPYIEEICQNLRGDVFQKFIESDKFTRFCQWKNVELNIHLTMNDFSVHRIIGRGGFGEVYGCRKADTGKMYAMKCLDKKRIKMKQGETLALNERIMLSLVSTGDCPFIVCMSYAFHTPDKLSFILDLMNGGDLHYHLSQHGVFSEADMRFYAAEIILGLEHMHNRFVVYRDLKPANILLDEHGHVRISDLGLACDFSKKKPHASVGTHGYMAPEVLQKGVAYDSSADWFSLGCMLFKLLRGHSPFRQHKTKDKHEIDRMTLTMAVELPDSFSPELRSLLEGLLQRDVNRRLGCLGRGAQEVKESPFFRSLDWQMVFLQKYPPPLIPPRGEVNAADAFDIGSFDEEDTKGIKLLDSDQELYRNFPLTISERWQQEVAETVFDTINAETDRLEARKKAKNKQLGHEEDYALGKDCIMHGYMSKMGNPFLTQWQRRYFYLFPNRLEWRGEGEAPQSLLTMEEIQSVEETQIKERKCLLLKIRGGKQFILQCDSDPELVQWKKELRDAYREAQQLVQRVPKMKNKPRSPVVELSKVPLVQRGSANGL
# run-description: GRK2 Inhibition Assay (TR-FRET, Example 7)
# Type: biochemical
# measurement-setup: Enzyme Assay B, TR-FRET (Example 7); read-out: B: Enzymatic GRK2: IC50 (nM) (Example 7)
IC50: recorded values
Answer with the figure and its unit, nothing else.

Here is how some molecules turned out for IC50.
Cn1c(CNc2cccc(C(=O)N[C@H]3CCOc4cc(Br)ccc43)c2)nnc1-c1ccncn1; 11 nM
O=C(NCc1cccnc1C(F)(F)F)c1cccc(NCc2nnc(-c3ccncn3)n2CCO)c1; 0.98 nM
Cn1c(CNc2cccc(C(=O)N[C@H]3CCOc4c(Br)cccc43)c2)nnc1-c1ccncn1; 3.6 nM
Cc1nc(CNC(=O)c2cccc(NCc3nnc(-c4ccncn4)n3C)c2)cs1 [drawing 610]; 13 nM
O=C(NCc1cccnc1C(F)(F)F)c1cccc(NCc2nnc(-c3ccncn3)n2CCCO)c1; 5.8 nM
CCCn1c(CNc2cccc(C(=O)NCc3cccc(F)c3)c2)nnc1-c1ccncn1; 5.3 nM

Ask | What IC50 value was documented for this molecule, CCCn1c(CNc2cccc(C(=O)NCc3ccccc3OCC)c2)nnc1-c1ccncn1 ?
Reply | 8.2 nM

Ask | What IC50 value was documented for this molecule, O=C(N[C@H]1CCOc2ccccc21)c1cccc(NCc2nnc(-c3ccncn3)n2CCO)c1 ?
Reply | 2.5 nM

Ask | What IC50 value was documented for this molecule, Cn1c(CNc2cccc(C(=O)NCc3ccc(C#N)cc3)c2)nnc1-c1ccncn1 [drawing 603] ?
Reply | 20 nM

Ask | What IC50 value was documented for this molecule, CCc1cnccc1CNC(=O)c1cccc(NCc2nnc(-c3ccncc3Cl)n2C)c1 ?
Reply | 79 nM

Ask | What IC50 value was documented for this molecule, C[C@H](NC(=O)c1cccc(NCc2nnc(-c3ccncn3)n2CCO)c1)c1ncccc1Cl ?
Reply | 0.88 nM

Ask | What IC50 value was documented for this molecule, CNCCCn1c(CNc2cccc(C(=O)NCc3c(F)cccc3F)c2)nnc1-c1ccncn1 ?
Reply | 660 nM

Ask | What IC50 value was documented for this molecule, O=C(NC1(c2ccccc2)CCOCC1)c1cccc(NCc2nnc3n2CCOc2cnccc2-3)c1 ?
Reply | 39 nM

Ask | What IC50 value was documented for this molecule, Cc1cccnc1CNC(=O)c1cccc(NCc2nnc(-c3ccncn3)n2CCO)c1 ?
Reply | 2.5 nM

Ask | What IC50 value was documented for this molecule, CCc1cnccc1CNC(=O)c1cccc(NCc2nnc(-c3ccncn3)n2CCCOC)c1 ?
Reply | 23 nM

----------
# measured-on: GRK2 (Homo sapiens)
# Construct: purchased SignalChem A14-10G
# run-description: GRK2 Inhibition Assay (TR-FRET, Example 7)
# Format: biochemical
# measurement-setup: Enzyme Assay B, TR-FRET (Example 7); read-out: B: Enzymatic GRK2: IC50 (nM) (Example 7)
outcome-measure: IC50 (nM)
The response must be a number in nM with no trailing unit.

CCCn1c(CNc2cccc(C(=O)NCc3c(OC)cccc3OC)c2)nnc1-c1ccncn1; 3.1
O=C(N[C@H]1CCOc2ccccc21)c1cccc(NCc2nnc(-c3ccncc3)[nH]2)c1; 2.1
Cn1c(CNc2cccc(C(=O)N[C@H]3CCOc4c3cccc4C(F)(F)F)c2)nnc1-c1ccncn1; 9.7
Cn1c(CNc2cc(C(=O)N[C@@H]3COc4ccccc43)ccn2)nnc1-c1ccncn1; 26

Ask | What IC50 value was documented for this compound, CCCn1c(CNc2cccc(C(=O)NCc3ccc(OC)cc3F)c2)nnc1-c1ccncn1 ?
Reply | 2.1

Ask | What IC50 value was documented for this compound, O=C(N[C@@H]1CCOc2c(Cl)cccc21)c1cccc(NCc2nnc(-c3ccncn3)n2CCO)c1 ?
Reply | 4.6

----------
IC50: recorded values
# measured-on: GRK2 (Homo sapiens, UniProt P25098)
# Construct: purchased SignalChem A14-10G
# Sequence (P25098 1-689): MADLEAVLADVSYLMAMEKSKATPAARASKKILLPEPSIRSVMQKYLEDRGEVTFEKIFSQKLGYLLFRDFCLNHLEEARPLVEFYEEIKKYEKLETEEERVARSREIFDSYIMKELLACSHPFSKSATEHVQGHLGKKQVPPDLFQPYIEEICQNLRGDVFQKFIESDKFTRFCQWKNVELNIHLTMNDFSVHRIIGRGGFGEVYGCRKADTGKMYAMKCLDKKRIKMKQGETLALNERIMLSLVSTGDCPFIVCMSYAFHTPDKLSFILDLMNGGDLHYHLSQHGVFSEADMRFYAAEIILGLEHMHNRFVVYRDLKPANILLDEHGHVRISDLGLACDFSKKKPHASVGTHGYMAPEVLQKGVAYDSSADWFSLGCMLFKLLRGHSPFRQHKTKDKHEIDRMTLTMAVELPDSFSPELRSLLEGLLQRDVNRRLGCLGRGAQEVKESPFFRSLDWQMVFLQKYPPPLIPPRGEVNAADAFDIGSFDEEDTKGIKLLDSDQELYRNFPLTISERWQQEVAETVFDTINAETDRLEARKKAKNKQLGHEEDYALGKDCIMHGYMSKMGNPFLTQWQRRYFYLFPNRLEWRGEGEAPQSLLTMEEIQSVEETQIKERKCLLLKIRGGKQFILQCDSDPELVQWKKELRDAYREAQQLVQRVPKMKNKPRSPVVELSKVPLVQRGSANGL
# run-description: ADPGlo GRK2 Inhibition Assay (Example 8)
# Format: biochemical
# measurement-setup: ADPGlo GRK2 enzyme assay; read-out: A: Enzymatic GRK2: IC50 (nM) (Example 8)
# Description: HTS was performed using 1 μM compound. Compounds were dissolved in 100% DMSO, serially diluted tree-fold from 100 μM concentration to 46 nM and transferred (50 nL) into assay ready plate. Materials: GRK2 was purchased from SignalChem (Cat #A14-10G, Lot #X^645-3). […] HTS protocol: Take 384 well plate with 50 nL of compound in columns 3-22/DMSO solution 1-2,23-24. […] Read plate in Luminescent modeon BMG PheraStar FSX (gain=3600). Data Analysis: Data were analyzed in GraphPad Prism 8.0.2. […]
The response must be a number in nM with no trailing unit.

CC(NC(=O)c1cccc(NCc2nnc(-c3ccncn3)n2C)c1)c1ncccc1F (stereo not drawn); 69
Cn1c(CNc2cccc(C(=O)NC3COc4ccccc4C3)c2)nnc1-c1ccncn1 (stereo not drawn); 68.4

Could you now consider this next molecule?
Ask | Notebook: pull reported IC50 for GRK2 (Homo sapiens, UniProt P25098), entry CC(C)NS(=O)(=O)Cc1ccccc1CNC(=O)c1cccc(NCc2nnc(-c3ccncn3)n2C)c1
Reply | 69.8
